- tgt: Integrin alpha-5/beta-1 (Homo sapiens, UniProt P05556+P08648)
- method-notes: Agonist activity at alpha5beta1 in human K562 cells assessed as assessed as increase in ERK1/2 phosphorylation at 1 to 100 nM by Western blot analysis
- Type: cell-based
- assay-conditions: filed as agonist, dose 1-100 nM
outcome-measure: Activity

Prompt: Param readout= Activity; system= Integrin alpha-5/beta-1 (Homo sapiens, UniProt P05556+P08648); entry= Cc1ccccc1NC(=O)N1C(=O)CC1CC(=O)NCC(=O)O (centres undefined) ; returns value.
Response: Dose-dependent effect

Prompt: Proceed to NCc1ccc(NC(=O)N2C(=O)CC2CC(=O)NCCC(=O)O)cc1.O=C(O)C(F)(F)F (centres undefined)
Response: Dose-dependent effect

Prompt: Proceed to Cc1ccccc1NC(=O)N1C(=O)CC1CC(=O)NCCC(=O)O (centres undefined)
Response: Dose-dependent effect
